target_system: GORASP2, Q9H8Y8
protocol_notes: holdup assay
Parameters: key: below the threshold = too weak to quantify, mostly under pKd 3.1 to 4
applied_conditions: plain residues with an end cap or a label only (N-terminal biotin on a linker: ado-ado)
quantity: pKd
Lab note: jot down the number only; don't add units.

Previously resolved entries follow.
QSYPSKHDYV [CLDN18, P56856] | 4.13
PYSESDDDWC [CACNA1A, O00555] | 3.67
ARESQKVSHV [FAM110B, Q8TC76] | 4.88
EDGESWEYQI [TRPV6, Q9H1D0] | 4.22

Then this binder:
Query :: Query pKd for ARSAAASNYV [CLDN4, O14493]
Result :: 4.01
